molecular target: Gag-Pol polyprotein (Human immunodeficiency virus type 1 group M subtype B (isolate HXB2)); assay: RNase H inhibition, HIV 1 Gag Pol polyprotein, FRET biochemical assay, screening (AID 372); settings: HIV-1 RT RNase H, FRET RNA/DNA substrate fluorescence; at 10 µM; active compounds read high
Out of some 100,000 compounds screened, about 770 (0.77%) were called active. The list comes from a sample in which actives are over-represented; it also holds close analogues and randomly drawn compounds.
Below, each entry is listed with its recorded inhibition.
Please state the figure in %; there is no need to write the unit.

Known results for compounds:
{"compound": "COc1ccc(/C=C/C(=O)Nc2ncc(Cc3ccccc3Cl)s2)cc1", "tested.system": "Gag-Pol polyprotein (Human immunodeficiency virus type 1 group M subtype B (isolate HXB2))", "unit": "%", "number": 54}
{"compound": "COc1cc(/C=c2\\sc3nc4c(C)c(C)ccc4n3c2=O)cc(Cl)c1O", "tested.system": "Gag-Pol polyprotein (Human immunodeficiency virus type 1 group M subtype B (isolate HXB2))", "unit": "%", "number": 31}
{"compound": "O=C(COc1ccc([N+](=O)[O-])cc1)Nc1ccc2oc(-c3cccc(Cl)c3)nc2c1", "tested.system": "Gag-Pol polyprotein (Human immunodeficiency virus type 1 group M subtype B (isolate HXB2))", "unit": "%", "number": 9}
{"compound": "O=C(COc1ccc([N+](=O)[O-])cc1)Nc1ccc2oc(-c3ccc(Br)cc3)nc2c1", "tested.system": "Gag-Pol polyprotein (Human immunodeficiency virus type 1 group M subtype B (isolate HXB2))", "unit": "%", "number": 14}
{"compound": "O=C(/C=C/c1ccccc1)C1=C(O)C(=O)N(c2ccccc2)C1c1cccc([N+](=O)[O-])c1 (stereo not given)", "tested.system": "Gag-Pol polyprotein (Human immunodeficiency virus type 1 group M subtype B (isolate HXB2))", "unit": "%", "number": 10}

// query inhibition value for entry COc1cc(/C=c2/sc3nc4c(C)c(C)ccc4n3c2=O)cc(OC)c1OC(C)=O
8

// query inhibition value for entry Cc1ccc(/C=C/C(=O)Nc2ncc(Cc3cc(Cl)ccc3Cl)s2)cc1
24

// query inhibition value for entry O=C(/C=C/c1cccs1)Nc1ncc(Cc2ccccc2Cl)s1
4

// query inhibition value for entry COc1cc(C(=O)N/C(=C/c2ccc(Br)cc2)C(=O)NC(C)C(=O)O)cc(OC)c1OC (stereo not given)
3

// query inhibition value for entry COc1cc(/C=c2\sc3nc4c(C)c(C)ccc4n3c2=O)cc(OC)c1O
58

###

molecular target: Gag-Pol polyprotein (Human immunodeficiency virus type 1 group M subtype B (isolate HXB2)) (UniProt P04585); assay: RNase H inhibition, HIV 1 Gag Pol polyprotein, FRET biochemical assay, screening (AID 372); settings: HIV-1 RT RNase H, FRET RNA/DNA substrate fluorescence; at 10 µM
In all, about 100,000 compounds went through this assay and about 770 (0.77%) were called active. Cut-off read from the data, not from the text of the source: active = inhibition above about 50%; inactive = the rest. The sample as a whole holds a higher share of actives than the screen did.
Respond using exactly one of the listed classes: True for active, False for inactive

Assay outcome for COc1cc(NC(=O)c2cc(Cl)c(OC)c(Cl)c2)ccc1NC(=O)c1cc2ccccc2o1 : what was it?
True

Assay outcome for c1ccc(CNc2nc(-c3ccccc3)[n+](-c3ccccc3)s2)cc1 : what was it?
True

Assay outcome for CC1=NN(c2ccc(S(N)(=O)=O)cc2)C(=O)/C1=C\c1ccc(-c2cccc(Cl)c2C)o1 : what was it?
True

###

molecular target: Gag-Pol polyprotein (Human immunodeficiency virus type 1 group M subtype B (isolate HXB2)) (UniProt P04585); assay: RNase H inhibition, HIV 1 Gag Pol polyprotein, FRET biochemical assay, screening (AID 372); details: HIV-1 RT RNase H, FRET RNA/DNA substrate fluorescence; at 10 µM
In all, about 100,000 compounds went through this assay and about 770 (0.77%) were called active. Cut-off read from the data, not from the text of the source: active = inhibition above about 50%; inactive = the rest. Many of the other results were omitted from the sample, so actives are more common in it than they were.
Respond using exactly one of the listed classes: class 1 for active, class 0 for inactive

As a guide, the following entries are already answered.
{"molecule": "CCC1CCc2c(sc(NC(=O)c3cc([N+](=O)[O-])ccc3Cl)c2C(N)=O)C1 (stereo not given)", "class.name": "class 0"}
{"molecule": "O=C1c2ccccc2C(=O)c2c(O)c([N+](=O)[O-])cc(O)c21", "class.name": "class 0"}
{"molecule": "CCOC(=O)C1=C(C)N=c2s/c(=C\\c3ccc(-c4ccc(Br)cc4[N+](=O)[O-])o3)c(=O)n2C1c1ccccc1 (stereo not given)", "class.name": "class 0"}
{"molecule": "COc1cc([N+](=O)[O-])ccc1NC(=O)c1cccc2ccccc12", "class.name": "class 0"}
{"molecule": "Cc1[nH]n(-c2ccccc2)c(=O)c1N=Nc1ccccc1Br", "class.name": "class 0"}
{"molecule": "CCOC(=O)c1c(NC(=O)c2ccc3c(c2)OCCO3)sc2c1CCCC2", "class.name": "class 0"}

Assay outcome for O=C(NN=C1CCCCC1)C(=O)Nc1ccc(F)cc1 : what was it?
class 0

Assay outcome for O=C(O)CCC(=O)NNC(=O)c1ccncc1 : what was it?
class 0

Assay outcome for CCCC(=O)Nc1ccc(NC(=O)c2ccc(-c3ccc([N+](=O)[O-])cc3OC)o2)cc1 : what was it?
class 1

Assay outcome for COc1ccc(/C=C2/SC(=O)N(CC(=O)Nc3ccc(C)c(C)c3)C2=O)cc1OC : what was it?
class 0

###

Below, each entry is listed with its recorded inhibition.
molecular target: Gag-Pol polyprotein (Human immunodeficiency virus type 1 group M subtype B (isolate HXB2)); assay: RNase H inhibition, HIV 1 Gag Pol polyprotein, FRET biochemical assay, screening (AID 372); settings: HIV-1 RT RNase H, FRET RNA/DNA substrate fluorescence; at 10 µM; active compounds read high
Out of some 100,000 compounds screened, about 770 (0.77%) were called active. The list comes from a sample in which actives are over-represented; it also holds close analogues and randomly drawn compounds.

{"compound": "CCN(CC)C(=O)CSc1nc(-c2ccccc2)c(-c2ccccc2)o1", "property.name": "inhibition", "result": "15% (inactive)"}
{"compound": "CCCn1c(O)c(N=NC(=O)C2COc3cc4ccccc4cc3O2)c2ccccc21 (stereo unspecified)", "property.name": "inhibition", "result": "34% (inactive)"}
{"compound": "Cc1ccc2nc(NNC(=O)CCC(=O)O)nc(-c3ccccc3)c2c1", "property.name": "inhibition", "result": "15% (inactive)"}
{"compound": "NC(=O)CSc1nc(-c2ccccc2)c(-c2ccccc2)o1", "property.name": "inhibition", "result": "37% (inactive)"}
{"compound": "CC(=O)CSc1nc(-c2ccccc2)c(-c2ccccc2)o1", "property.name": "inhibition", "result": "50% (active)"}

Lab note: next compound to report on.
// query inhibition value for entry O=C(N=Nc1c(O)[nH]c2ccc(Br)cc12)C1COc2cc3ccccc3cc2O1 (stereo unspecified)
4% (inactive)

###

target: Gag-Pol polyprotein (Human immunodeficiency virus type 1 group M subtype B (isolate HXB2)); experiment: RNase H inhibition, HIV 1 Gag Pol polyprotein, FRET biochemical assay, screening (AID 372); conditions: HIV-1 RT RNase H, FRET RNA/DNA substrate fluorescence; at 10 µM
Hit rate of the full screen: of about 100,000 compounds, about 770 (0.77%) were called active. No stated cut-off is given here; in the data, active means inhibition above about 50%; inactive means the rest. This excerpt belongs to a sample that is enriched for actives.
Respond using exactly one of the listed classes: active, inactive

As a guide, the following entries are already answered.
{"molecule": "COc1ccccc1CC(=O)Nc1ccc(C)c(Cl)c1", "class.name": "inactive"}
{"molecule": "O=C(Nc1ccc2oc(-c3ccccc3)nc2c1)c1ccc2c(c1)OCCO2", "class.name": "inactive"}
{"molecule": "O=C(Nc1ccc2oc(-c3ccc(F)cc3)nc2c1)c1ccc2c(c1)OCCO2", "class.name": "active"}

Assay outcome for COc1ccccc1CNC(=O)c1cccc(N(C)C)c1 : what was it?
active

Assay outcome for COc1cccc(C(=O)Nc2ccc(-c3cnc(-c4ccc(NC(=O)c5cccc(OC)c5)cc4)nc3)cc2)c1 : what was it?
active

Assay outcome for COc1ccc(C(=O)Nc2ccc(NC(=O)c3ccco3)c(OC)c2)cc1Cl : what was it?
inactive

Assay outcome for O=C(Nc1cccc(-c2nc3cc(Cl)ccc3o2)c1)c1ccc2c(c1)OCCO2 : what was it?
inactive

Assay outcome for Cc1ccc(C)c(NC(=S)NC(=O)c2ccc(C)c([N+](=O)[O-])c2)c1 : what was it?
inactive

Assay outcome for O=C(NC(=S)Nc1ccc(Br)cc1)c1ccc(Cl)cc1 : what was it?
inactive

Assay outcome for COc1ccc(CC(=O)Nc2ccc(Br)c(C)c2)cc1OC : what was it?
inactive

Assay outcome for Cc1cc(C)cc(NC(=O)C(C)N2C(=O)c3ccccc3C2=O)c1 (stereo not drawn) : what was it?
inactive

Assay outcome for O=C(Cn1cc(/C=C2/C(=O)NC(=S)N(c3ccccc3F)C2=O)c2ccccc21)Nc1ccccc1 : what was it?
inactive

Assay outcome for O=C(Nc1ccc2oc(-c3ccc(I)cc3)nc2c1)c1ccc2c(c1)OCCO2 : what was it?
inactive

Assay outcome for CC1=C(C(=O)Nc2ccccc2)C(c2cccc(Br)c2)NC(=S)N1 (stereo not drawn) : what was it?
inactive

Assay outcome for COc1ccc(NC(=O)/C(C#N)=C/c2cn(CC(=O)Nc3ccccc3)c3ccccc23)cc1 : what was it?
active

Assay outcome for O=C(Cn1cc(/C=C2/C(=O)NC(=O)N(c3cccc(F)c3)C2=O)c2ccccc21)Nc1ccccc1 : what was it?
inactive

Assay outcome for COc1ccccc1CC(=O)Nc1ccc(Br)c(C)c1 : what was it?
active

Assay outcome for N#C/C(=C/c1ccc(Sc2ccccc2)o1)C(=O)NCc1ccccc1 : what was it?
inactive

Assay outcome for O=C(COC(=O)c1ccc2c(c1)OCCO2)c1ccc(-c2ccccc2)cc1 : what was it?
inactive

Assay outcome for O=C(Cc1ccccc1Cl)c1ccc(O)cc1O : what was it?
inactive

Assay outcome for COc1ccc(C2CC(=O)C3=C(C2)NC(C)=C(C(=O)OC2CCCC2)C3c2ccc3c(c2)OCO3)cc1 (stereo not drawn) : what was it?
inactive
